# reported Cyno Primary Hepatocyte Editing % 100; entries follow
tested on: PCSK9 gene; assay: PCSK9 gRNA/SpCas9 editing in primary cynomolgus hepatocytes (Tables 2, 22); assay type: cell-based, cynomolgus monkey; settings: 100 ng/RNA/mL; SpCas9 mRNA MS002 1:1 by weight
In the oligonucleotide strings, read from the 5' end, every base follows the letter of its sugar. An asterisk marks phosphorothioate; unmarked linkages are phosphodiester. Other units and linkages are bracketed, terminal groups are in braces. A string of capitals states the bases alone. m = 2'-O-methyl; r = 2'-OH (RNA)
Reply numerically in %, unit not repeated.

>>> readoutnumber("GA212: PCSK9 gRNA; protospacer CGGGATGCCGGCGTGGCCAA (SEQ ID NO: 206) (nucleic acid, sugars from the 5' end m3 r94 m3, linkages s3 o93 s3 (s phosphorothioate, o phosphodiester), T or U not given here) guide: CGGGAUGCCGGCGUGGCCAAGUUUUAGAGCUAGAAAUAGCAAGUUAAAAUAAGGCUAGUCCGUUAUCAACUUGAAAAAGUGGCACCGAGUCGGUGCUUUU")
1.96
>>> readoutnumber("GA189: PCSK9 gRNA; protospacer TCCTCGATGTAGTCGACATG (SEQ ID NO: 183) (nucleic acid) guide: mU*mC*mC*rUrCrGrArUrGrUrArGrUrCrGrArCrArUrGrGrUrUrUrUrArGrArGrCrUrArGrArArArUrArGrCrArArGrUrUrArArArArUrArArGrGrCrUrArGrUrCrCrGrUrUrArUrCrArArCrUrUrGrArArArArArGrUrGrGrCrArCrCrGrArGrUrCrGrGrUrGrCrU*mU*mU*mU")
3.30
>>> readoutnumber("GA219: PCSK9 gRNA; protospacer GGCAGGGGTGGTCAGCGGCC (SEQ ID NO: 213) (nucleic acid, sugars from the 5' end m3 r94 m3, linkages s3 o93 s3 (s phosphorothioate, o phosphodiester), T or U not given here) guide: GGCAGGGGUGGUCAGCGGCCGUUUUAGAGCUAGAAAUAGCAAGUUAAAAUAAGGCUAGUCCGUUAUCAACUUGAAAAAGUGGCACCGAGUCGGUGCUUUU")
0.35

Using the record for GA240: PCSK9 gRNA; protospacer TGCCAGCGCCTGGCGAGGGC (SEQ ID NO: 233) (nucleic acid, sugars from the 5' end m3 r94 m3, linkages s3 o93 s3 (s phosphorothioate, o phosphodiester), T or U not given here) guide: UGCCAGCGCCUGGCGAGGGCGUUUUAGAGCUAGAAAUAGCAAGUUAAAAUAAGGCUAGUCCGUUAUCAACUUGAAAAAGUGGCACCGAGUCGGUGCUUUU , state its measured Cyno Primary Hepatocyte Editing % 100. 0.52

Using the record for GA242: PCSK9 gRNA; protospacer TCACCGCTGCCGGCAACTTC (SEQ ID NO: 235) (nucleic acid, sugars from the 5' end m3 r94 m3, linkages s3 o93 s3 (s phosphorothioate, o phosphodiester), T or U not given here) guide: UCACCGCUGCCGGCAACUUCGUUUUAGAGCUAGAAAUAGCAAGUUAAAAUAAGGCUAGUCCGUUAUCAACUUGAAAAAGUGGCACCGAGUCGGUGCUUUU , state its measured Cyno Primary Hepatocyte Editing % 100. 1.79

Using the record for GA186: PCSK9 gRNA; protospacer CTCATCTTCACCAGGAAGCC (SEQ ID NO: 180) (nucleic acid) guide: mC*mU*mC*rArUrCrUrUrCrArCrCrArGrGrArArGrCrCrGrUrUrUrUrArGrArGrCrUrArGrArArArUrArGrCrArArGrUrUrArArArArUrArArGrGrCrUrArGrUrCrCrGrUrUrArUrCrArArCrUrUrGrArArArArArGrUrGrGrCrArCrCrGrArGrUrCrGrGrUrGrCrU*mU*mU*mU , state its measured Cyno Primary Hepatocyte Editing % 100. 1.96
